Form field: pIC50 (one value per entry).
Target: APJ (Homo sapiens)
Construct: expressed in transfected cells; host or cells: CHO (CHO-A10; clone 6 for the cAMP assay)
Sequence (P35414 1-380): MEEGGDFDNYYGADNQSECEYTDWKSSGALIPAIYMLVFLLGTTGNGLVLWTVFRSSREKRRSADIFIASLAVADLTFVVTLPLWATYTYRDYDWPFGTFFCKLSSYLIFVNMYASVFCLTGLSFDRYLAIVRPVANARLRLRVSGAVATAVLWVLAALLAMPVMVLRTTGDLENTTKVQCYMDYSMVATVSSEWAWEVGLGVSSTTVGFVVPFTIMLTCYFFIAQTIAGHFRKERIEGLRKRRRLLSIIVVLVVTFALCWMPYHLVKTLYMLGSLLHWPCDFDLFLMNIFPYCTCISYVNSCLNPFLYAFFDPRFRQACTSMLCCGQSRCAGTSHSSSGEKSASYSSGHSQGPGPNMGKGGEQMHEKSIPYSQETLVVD
Experiment: Receptor binding assay-2 (compound in Reference Example 2 used)
Settings: compound in Reference Example 2 used as ligand; read-out: IC50
Non-standard residues stand in square brackets, D forms with d. Residues, ends and D or L forms follow the SMILES beside them. Phe(4-Cl) = N[C@@H](Cc1ccc(Cl)cc1)C(=O)O; Cha = N[C@@H](CC1CCCCC1)C(=O)O; Dap = NC[C@H](N)C(=O)O
A value of pIC50 is the negative decimal logarithm of a concentration given in moles per litre.

Worked set:
CSCC[C@H](NC(=O)[C@@H]1CCCN1C(=O)CNC(=O)[C@H](CCCCN)NC(=O)[C@H](Cc1c[nH]cn1)NC(=O)[C@H](CO)NC(=O)[C@H](CC(C)C)NC(=O)[C@H](CCCNC(=N)N)NC(=O)[C@@H]1CCCN1C(=O)[C@@H](N)CCCNC(=N)N)C(=O)N1CCC[C@H]1C(=O)N[C@@H](Cc1ccc(Cl)cc1)C(=O)O :: 10.41
CSCC[C@H](NC(=O)[C@@H]1CCCN1C(=O)CNC(=O)[C@H](CCCNC(=N)N)NC(=O)[C@H](C)NC(=O)[C@H](CO)NC(=O)[C@H](CC(C)C)NC(=O)[C@H](CCCNC(=N)N)NC(=O)[C@@H]1CCCN1C(=O)[C@H](CCCNC(=N)N)NC(=O)[C@H](CCC(N)=O)NC(=O)[C@H](CCCNC(=N)N)NC(=O)[C@@H](N)CCCNC(=N)N)C(=O)N1CCC[C@H]1C(=O)N[C@@H](Cc1ccccc1)C(=O)O :: 10.44
CC(C)C[C@H](NC(=O)[C@H](CCCNC(=N)N)NC(=O)[C@@H]1CCCN1C(=O)[C@@H](N)CCCNC(=N)N)C(=O)N[C@@H](Cc1ccccc1)C(=O)N[C@@H](Cc1c[nH]cn1)C(=O)N[C@@H](CCCCN)C(=O)NCC(=O)N1CCC[C@H]1C(=O)N[C@@H](CC1CCCCC1)C(=O)N1CCC[C@H]1C(=O)N[C@@H](Cc1ccccc1)C(=O)O [Compound in Ex. 15] (H-RPRLFHKGP[Cha]PF-OH; N-terminus and C-terminus assumed) :: 9.89

Noted pIC50 for CC(=O)NC[C@H](NC(=O)[C@H](CO)NC(=O)[C@H](CC(C)C)NC(=O)[C@H](CCCNC(=N)N)NC(=O)[C@@H]1CCCN1C(=O)[C@@H](N)CCCNC(=N)N)C(=O)N[C@@H](CCCNC(=N)N)C(=O)NCC(=O)N1CCC[C@H]1C(=O)N[C@@H](CC1CCCCC1)C(=O)N1CCC[C@H]1C(=O)N[C@@H](Cc1ccc(Cl)cc1)C(=O)O [Compound in Ex. 66] (H-RPRLS[Dap](Ac)RGP[Cha]P[Phe(4-Cl)]-OH) , tested on APJ (Homo sapiens): 9.96

Noted pIC50 for CSCC[C@H](NC(=O)[C@@H]1CCCN1C(=O)CNC(=O)[C@H](CCCCN)NC(=O)[C@H](Cc1c[nH]cn1)NC(=O)[C@H](CO)NC(=O)[C@H](CC(C)C)NC(=O)[C@H](CCCNC(=N)N)NC(=O)[C@@H]1CCCN1C(=O)[C@H](CCCNC(=N)N)NC(=O)[C@H](C)NC(=O)[C@H](CCCNC(=N)N)NC(=O)[C@@H](N)CCCNC(=N)N)C(=O)N1CCC[C@H]1C(=O)N[C@@H](Cc1ccccc1)C(=O)O , tested on APJ (Homo sapiens): 10.17

The reported numbers originate from patent US20040116336A1.
